- Experiment Description: Drug recovery in cynomolgus monkey urine at 5 mg/kg, po after 24 hrs
- Assay type: ADME, organism-based, Macaca fascicularis
- Condition Summary: read-out: Drug recovery
Quantity Name: dose excreted at 24 h (%)
# number only, unit % dropped from output

Please indicate dose excreted at 24 h recorded for COc1c(N2C[C@@H]3CCOC[C@@]3(N)C2)c(F)cc2c(=O)c(C(=O)O)cn([C@@H]3C[C@@H]3F)c12.CS(=O)(=O)O
64.1

----------
Attribute: MIC
- System: Escherichia coli
- Experiment Description: Antibacterial activity against Escherichia coli 5-037042'98 harboring gyrase A Asp87Gly mutation after 18 hrs by two-fold microbroth dilution method
- Type: functional
- Condition Summary: 5-037042'98, 18 h
Return type: number; implicit unit µg/mL.

smiles_notation=N[C@@]12CCC[C@@H]1CNC2 test_result=0.1
smiles_notation=COc1c(N2CC3(CC3)[C@](C)(N)C2)c(F)cc2c(=O)c(C(=O)O)cn([C@@H]3C[C@@H]3F)c12 test_result=0.05
smiles_notation=N[C@@]12CCCC[C@H]1CNC2 test_result=0.025
smiles_notation=C[C@H]1COc2c(N3CCN(C)CC3)c(F)cc3c(=O)c(C(=O)O)cn1c23.C[C@H]1COc2c(N3CCN(C)CC3)c(F)cc3c(=O)c(C(=O)O)cn1c23.O test_result=0.1
smiles_notation=COc1c(N2C[C@@H]3CCCN[C@@H]3C2)c(F)cc2c(=O)c(C(=O)O)cn(C3CC3)c12 test_result=0.1
smiles_notation=COc1c(N2C[C@H]3CCOC[C@@]3(N)C2)c(F)cc2c(=O)c(C(=O)O)cn([C@@H]3C[C@@H]3F)c12 test_result=0.39

Tell me its MIC given N[C@@]12CCCC[C@@H]1CNC2 as the entry.
0.1

Output MIC of COc1c(N2C[C@@H]3CCOC[C@@]3(N)C2)c(F)cc2c(=O)c(C(=O)O)cn([C@@H]3C[C@@H]3F)c12
0.05

----------
- Target Desc: UniProt Q12809
- Sequence (Q12809 whole entry): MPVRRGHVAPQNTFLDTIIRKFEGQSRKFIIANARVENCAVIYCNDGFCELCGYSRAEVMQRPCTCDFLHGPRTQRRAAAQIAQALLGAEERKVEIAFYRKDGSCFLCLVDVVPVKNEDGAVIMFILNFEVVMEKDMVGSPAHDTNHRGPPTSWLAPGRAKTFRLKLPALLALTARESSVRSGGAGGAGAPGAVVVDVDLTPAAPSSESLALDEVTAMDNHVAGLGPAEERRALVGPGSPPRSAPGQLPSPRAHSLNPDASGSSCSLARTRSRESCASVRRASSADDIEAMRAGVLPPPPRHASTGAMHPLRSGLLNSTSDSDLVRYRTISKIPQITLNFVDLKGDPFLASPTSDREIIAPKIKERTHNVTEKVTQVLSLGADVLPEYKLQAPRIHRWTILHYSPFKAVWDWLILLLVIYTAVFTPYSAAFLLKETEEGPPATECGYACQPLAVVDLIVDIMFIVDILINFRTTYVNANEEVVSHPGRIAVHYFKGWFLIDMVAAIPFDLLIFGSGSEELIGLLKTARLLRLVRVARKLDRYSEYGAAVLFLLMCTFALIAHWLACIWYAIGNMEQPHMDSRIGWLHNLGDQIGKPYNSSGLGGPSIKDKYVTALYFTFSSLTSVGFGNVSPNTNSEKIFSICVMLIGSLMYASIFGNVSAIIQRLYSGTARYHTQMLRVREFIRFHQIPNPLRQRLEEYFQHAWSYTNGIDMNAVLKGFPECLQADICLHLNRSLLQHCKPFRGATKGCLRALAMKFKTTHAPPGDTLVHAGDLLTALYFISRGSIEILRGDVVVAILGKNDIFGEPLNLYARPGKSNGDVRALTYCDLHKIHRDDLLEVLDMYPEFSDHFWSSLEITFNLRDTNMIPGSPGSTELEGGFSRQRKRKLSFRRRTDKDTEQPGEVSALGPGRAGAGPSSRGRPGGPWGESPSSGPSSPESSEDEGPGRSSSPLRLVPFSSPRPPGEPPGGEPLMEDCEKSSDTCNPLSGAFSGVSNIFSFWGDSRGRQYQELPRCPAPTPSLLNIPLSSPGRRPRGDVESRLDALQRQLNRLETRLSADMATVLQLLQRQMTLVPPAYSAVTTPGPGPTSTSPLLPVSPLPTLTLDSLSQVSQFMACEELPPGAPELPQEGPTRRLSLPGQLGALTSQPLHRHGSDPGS
- Experiment Description: Inhibition of human ERG expressed in CHOK1 cells at 30 uM
- Type: cell-based
- Condition Summary: CHOK1 cells that express human ERG
Quantity Name: inhibition at 30 µM (%)
Dear colleague, please return just the value in %, with no unit written.

Look up inhibition at 30 µM of COc1c(N2C[C@@H]3CCOC[C@@]3(N)C2)c(F)cc2c(=O)c(C(=O)O)cn([C@@H]3C[C@@H]3F)c12 and report it.
-2.2

----------
- Tested on: Staphylococcus aureus
- Experiment Description: Antibacterial activity against methicillin-resistant Staphylococcus aureus after 18 hrs by two-fold microbroth dilution method
- Assay type: functional
- Condition Summary: Staphylococcus aureus, 18 h
Quantity Name: MIC50 (mg/L)
Write it as a number; the unit mg/L goes unstated.

compound=COc1c(N2C[C@@H]3CCOC[C@@]3(N)C2)c(F)cc2c(=O)c(C(=O)O)cn([C@@H]3C[C@@H]3F)c12 quantity_name=MIC50 test_result=0.015
compound="C[C@H]1COc2c(N3CCN(C)CC3)c(F)cc3c(=O)c(C(=O)O)cn1c23.C[C@H]1COc2c(N3CCN(C)CC3)c(F)cc3c(=O)c(C(=O)O)cn1c23.O [LEVOFLOXACIN]" quantity_name=MIC50 test_result=0.5
compound="COc1c(N2C[C@@H]3CCCN[C@@H]3C2)c(F)cc2c(=O)c(C(=O)O)cn(C3CC3)c12 [MOXIFLOXACIN]" quantity_name=MIC50 test_result=0.06
compound=COc1c(N2CC3(CC3)[C@](C)(N)C2)c(F)cc2c(=O)c(C(=O)O)cn([C@@H]3C[C@@H]3F)c12 quantity_name=MIC50 test_result=0.03

Fill in reported MIC50 for this entry: C[C@H]1NCc2cc(-c3ccc4c(=O)c(C(=O)O)cn(C5CC5)c4c3OC(F)F)ccc21 [GARENOXACIN]
0.03
